This collection of values is drawn from PubChem BioAssay AID686979.

assay: qHTS for Inhibitors of human tyrosyl-DNA phosphodiesterase 1 (TDP1): qHTS in cells in presence of CPT; settings: chicken DT40 Tdp1-/-;hTDP1 cells + 20 nM CPT, ATP luminescence, 48 h; series mostly up to 46.2 µM; further: nearly all actives have a fitted effect of over 55% in size
About 50,000 (12%) of roughly 420,000 compounds were called active. About 26% were inconclusive and are not listed. The call rests on the fitted dose curve; in most records, active means well fitted inhibition curve with a large enough effect; inconclusive means small, poorly fitted or top-dose-only effect; inactive means flat fitted curve, though single readings scatter. The list comes from a sample in which actives are over-represented; it also holds close analogues and randomly drawn compounds.
Hi there, use one of these labels in your reply, thanks! active, inactive

>  <Molecule>
Cc1ccc(S(=O)(=O)Nc2ccc3c(c2)C(=O)N([C@H](C)CO)C[C@@H](C)[C@@H](CN(C)C(=O)Nc2cccc4ccccc24)O3)cc1

>  <Group Label>
active

$$$$
>  <Molecule>
CN(CC(=O)Nc1ccc(F)c(F)c1F)C(=O)C1CC(=O)N(C2CCCC2)C1 (centres undefined)

>  <Group Label>
inactive

$$$$
>  <Molecule>
O=C(COC(=O)Cc1ccc(Cl)cc1Cl)NCc1ccco1

>  <Group Label>
inactive

$$$$
>  <Molecule>
Cc1ccc(C)c2[nH]c(=O)c(CCNC(=O)CC(C)C)cc12

>  <Group Label>
inactive

$$$$
>  <Molecule>
Cc1ccc(C)c(NC(=S)NNC(=S)Nc2ccc(C(C)C)cc2)c1

>  <Group Label>
inactive

$$$$
>  <Molecule>
COc1ccc(NC(=O)N(C)C[C@H]2Oc3ccc(NC(=O)C4CC4)cc3C(=O)N([C@H](C)CO)C[C@@H]2C)cc1

>  <Group Label>
inactive

$$$$
>  <Molecule>
O=C(NCc1cccs1)C1CCN(S(=O)(=O)c2ccc(Cl)cc2)CC1

>  <Group Label>
inactive

$$$$
>  <Molecule>
Cc1noc(C)c1NC(=O)Nc1ccc2c(c1)C(=O)N([C@H](C)CO)C[C@H](C)[C@@H](CN(C)C(=O)Nc1ccccc1)O2

>  <Group Label>
inactive

$$$$

Now consider the entry below.
Asked: // param item: "O=C(O)c1ccccc1/C=N/Nc1ccc(S(=O)(=O)Nc2ccc(Cl)cc2)cc1[N+](=O)[O-]" ; yields the recorded call
Given back: inactive

====

experiment: qHTS for Inhibitors of human tyrosyl-DNA phosphodiesterase 1 (TDP1): qHTS in cells in presence of CPT; conditions: chicken DT40 Tdp1-/-;hTDP1 cells + 20 nM CPT, ATP luminescence, 48 h; series mostly up to 46.2 µM; further: nearly all actives have a fitted effect of over 55% in size
The whole screen tested about 420,000 compounds, of which about 50,000 (12%) were called active. Another 26% or so got no clear call; they are omitted. The call rests on the fitted dose curve; in most records, active means well fitted inhibition curve with a large enough effect; inconclusive means small, poorly fitted or top-dose-only effect; inactive means flat fitted curve, though single readings scatter. Only a selection was taken, and actives are over-represented in it overall.
// classify into active, inactive

Examples from the recorded data:
>  <Compound>
CCN(CC(=O)Nc1ccc2c(c1)OCCO2)Cc1cc(=O)oc2cc(C)c(C)cc12

>  <Group Label>
inactive

$$$$
>  <Compound>
CN(Cc1ccc(F)cc1)C(=O)CN1C(=O)c2ccccc2S1(=O)=O

>  <Group Label>
inactive

$$$$
>  <Compound>
CCN1CCN(Cc2nc3c(c(=O)n(C)c(=O)n3C)n2CC(=O)c2ccccc2)CC1

>  <Group Label>
inactive

$$$$
>  <Compound>
CN(C)C(=O)c1ccc(NC(=O)c2ccccc2-c2ccccc2)cc1

>  <Group Label>
inactive

$$$$
>  <Compound>
COc1ccc(S(=O)(=O)Nc2cc(C)on2)cc1NC(C)=O

>  <Group Label>
inactive

$$$$
>  <Compound>
CC(C)Oc1ccc(C(=O)NCC(=O)Nc2ccc3c(c2)CCC3)cc1

>  <Group Label>
inactive

$$$$
>  <Compound>
Cc1csc(NC(=O)c2ccc(C)s2)n1

>  <Group Label>
inactive

$$$$
>  <Compound>
Cc1c(NC(=O)CSCc2ccccc2)cccc1C(=O)O

>  <Group Label>
inactive

$$$$
>  <Compound>
Cn1c(=O)c2c(nc(CN3CCOCC3)n2Cc2ccccc2)n(C)c1=O

>  <Group Label>
inactive

$$$$
>  <Compound>
COc1ccc(Cc2nnc(NC(=O)c3ccc(OC)cc3OC)s2)cc1

>  <Group Label>
inactive

$$$$

Asked: Dear colleague, could you share the recorded outcome for O=C(COc1ccc2c3c(c(=O)oc2c1)CCCC3)NCC(O)c1ccccc1 (stereo not drawn) when you have a moment?
Given back: active

Asked: Hello, I am checking results. What call was entered for "O=C(O)CSc1nnc(-c2ccc3c(c2)OCO3)n1-c1ccccc1" ?
Given back: inactive
